target: T1, Human CD3 epsilon (CD3epsilon) protein (His Tag) (human, UniProt P07766 23-126); test: ELISA, antigen coated on plate
T1 construct: extracellular domain; Bought protein; also called recombinant human CD3epsilon ECD; not shown: His tag
T1 sequence (P07766 23-126): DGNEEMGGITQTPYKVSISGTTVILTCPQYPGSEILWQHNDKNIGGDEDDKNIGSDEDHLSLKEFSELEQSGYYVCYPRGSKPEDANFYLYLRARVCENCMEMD
MEASURE: EC50 (nM)
Express your answer in nM, writing the number without its unit.

Sample answers from the record:
* WBP3311_2.400.5 (antibody, V domains shown, Mouse monoclonal antibody from hybridoma; also called W3311-2.400.5) VH: QVQLQQSGPELVNPGASVKISCKASGYSFTNYYLHWVKQRPGQGLEWIGWIFPESDNTKYNEKLKGKATLTADTSSDTAYMHLSSLTFEDSAVYFCARDSVGNYFFDFWGQGTTLTVSS VL: DIVMSQSPSSLAVSAGEKVTMRCKSSQSLVNNRTRKNYLAWYQQKPGQPPKLLIYWASTRESGVPDRFTGSGSGTDFTLTISSVQAEDLAVYYCAQSFILRTFGGGTKLEIK | 0.053
* WBP3311_2.844.8 (antibody, V domains shown, Mouse monoclonal antibody from hybridoma; also called W3311-2.844.8; clone 2.844.8) VH: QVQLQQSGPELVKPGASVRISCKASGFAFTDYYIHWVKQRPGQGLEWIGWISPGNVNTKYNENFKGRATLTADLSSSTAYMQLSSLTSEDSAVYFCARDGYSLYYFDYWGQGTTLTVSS VL: DIVMSQSPSSLTVSAGEKVTMSCKSSQSLLNSRTRKNYLAWYQQKPGQSPKLLIYWASTRESGVPDRFTGSGSGTAFTLTISGVQAEDLAVYFCTQSHTLRTFGGGTKLEIK | 0.011
* WBP3311_2.615.8 (antibody, V domains shown, Mouse monoclonal antibody from hybridoma; also called W3311-2.615.8) VH: QVQLQQSGPELVKPGTSMKISCKASGYSFTDFYTHWVRQRPGQGLEWIGWIFPGSDNIKYNEKFKGKATLTADTSSSTAYMQLSSLTSEDSAVYFCARDSVSVYYFDYWGQGTTLTVSS VL: DIVMSQSPSSLAVTAGEKVTMSCKSSQSLLNIRTRKNYLAWYQQKPGQSPKLLIYWASTRDSGVPDRFTGSGSGTDFTLTISSVQAEDLAVYYCTQSFILRTFGGGTKLEIK | 0.033
* WBP3311_2.383.47 (antibody, V domains shown, Mouse monoclonal antibody from hybridoma) VH: QVQLQQSGPELVKPGASVRISCKTSGFTFTNYYIHWVIQRPGQGLEWIGWISPENGNTKYNENFQDKATLTADISSSTAYMHLSSLTSEDSAVYFCARDGYSLYYFDYWGQGTTLTVSS VL: DIVMSQSPSSLTVSAGEKVTMSCKSSQSLLNSRTRKNYLAWYQQKPGQSPKLLIYWASIRVSGVPDRFTGSGSGTTFTLTISGVQAEDLAVYYCTQSHTLRTFGGGTKLEIK | 0.074

Entry under review: WBP3311_2.482.5 (antibody, V domains shown, Mouse monoclonal antibody from hybridoma; also called W3311-2.482.5) VH: QVQLQQSGPELVKPGSSVKISCKPSGYTFTTYYIHWVKQRPGQGLEWIGWIFPGSDNIKYNENFKDKATLTADTSSSTAYMQLSSLTSEDSAVYFCARDSVSRYYFDYWGQGTILTVSS VL: DIVMSQSPSSLAVSAGEKVTMSCKSSQSLVNDRTRKNYLAWYQQKPGLSPKLLIYWASTRESGVPDRFTGSGSGTDFTLTISSVQAEDLAVYYCAQSFILRTFGGGTKLEIK . Reported EC50? 0.069

Entry under review: WBP331_2.488.33 (antibody, V domains shown, Mouse monoclonal antibody from hybridoma; also called WBP3311_2.488.33; W3311-2.488.33) VH: QVQLQQSGPELVKPGTSVKISCKASGFSFTNYYIHWVKQRPGQGPEWIGWIFPGTVNTKYNEKFKGKATLTADTSSNTAFMQLSSLTSADSAVYFCARDSVGIYYFDFWGLGTTLTVSS VL: DIVMSQSPSSLAVSAGEKVTVSCKSSQSLLNNRTRKNYLAWYQQKPGQSPKLLIYWASTRESGVPDRFTGSGSGTDFTLTISSVQAEDLAVYYCTQSFILRTFGGGTKLEIK . Reported EC50? 0.026
